Where do the numbers come from? From patent US9051310B2.

# subject-of-test: glutathione S-transferase (GST)-linked full-length human Syk protein (Homo sapiens, UniProt P43405)
pIC50: −log10 of the molar value.
readout-type: pIC50

Worked set:
COc1cccc(Nc2nc(N[C@H](C3CCC3)[C@H](C)N)c(F)cc2C(N)=O)c1 = > 8.00
COCCn1nc(OC)c2cc(Nc3nc(N[C@@H](CN)CC(C)C)c(F)cc3C(N)=O)ccc21 = > 8.00
COCCOc1ncc(Nc2nc(N[C@H](C3CC3)[C@H](C)N)c(F)cc2C(N)=O)cc1-n1nccn1 = 7.30 to 8.00
CC[C@H](N)[C@@H](C)Nc1nc(Nc2cnc3c(c2)c(OC)nn3C)c(C(N)=O)cc1F = 7.00 to 7.30
COc1nn(C)c2ncc(Nc3nc(N[C@@H]4CCOC[C@@H]4N)c(F)cc3C(N)=O)cc12 = > 8.00
NC(=O)c1cc(F)c(N[C@@H]2CCCC[C@@H]2N)nc1Nc1cccc(Cl)c1 = > 8.00
C[C@H](N)[C@@H](Cc1ccccc1)Nc1nc(Nc2ccc3c(c2)c(N(C)C)nn3C)c(C(N)=O)cc1F = > 8.00
CCn1ncc2cc(Nc3nc(N[C@H](C(C)C)[C@H](C)N)c(F)cc3C(N)=O)ccc21 = 7.30 to 8.00

*Q* Param item = COCCNc1nn(CCOC)c2ccc(Nc3nc(N[C@@H]4CCCC[C@@H]4N)c(F)cc3C(N)=O)cc12 ; retrieve measured pIC50.
*A* 7.30 to 8.00

*Q* Param item = CC[C@H](N)[C@H](Nc1nc(Nc2cncc(F)c2)c(C(N)=O)cc1F)C1CC1 ; retrieve measured pIC50.
*A* 7.30 to 8.00

*Q* Param item = Cc1ncc(Nc2nc(N[C@@H]3CC[C@@H](OCc4ccccc4)C[C@@H]3N)c(F)cc2C(N)=O)cc1-n1nccn1 (racemic) ; retrieve measured pIC50.
*A* 7.00 to 7.30

*Q* Param item = CC(=O)c1cccc(Nc2nc(N[C@@H]3CCCC[C@@H]3N)c(F)cc2C(N)=O)c1 ; retrieve measured pIC50.
*A* > 8.00

*Q* Param item = Cc1cnn(-c2cncc(Nc3nc(N[C@@H]4CCOC[C@@H]4N)c(F)cc3C(N)=O)c2)c1 ; retrieve measured pIC50.
*A* > 8.00

*Q* Param item = COCCN(C)c1nn(C)c2ccc(Nc3nc(N[C@@H]4CCCC[C@@H]4N)c(F)cc3C(N)=O)cc12 ; retrieve measured pIC50.
*A* > 8.00

*Q* Param item = COc1ccc([C@@H](Nc2nc(Nc3cnc(OC)c(-n4ccnn4)c3)c(C(N)=O)cc2F)[C@H](C)N)cc1 ; retrieve measured pIC50.
*A* 7.00 to 7.30

*Q* Param item = CC[C@H](N)[C@@H](C)Nc1nc(Nc2ccc3c(c2)c(OC)nn3C)c(C(N)=O)cc1F ; retrieve measured pIC50.
*A* > 8.00

*Q* Param item = CCn1ncc2c(Nc3nc(N[C@@H]4CCCC[C@@H]4N)c(F)cc3C(N)=O)cc(F)cc21 ; retrieve measured pIC50.
*A* > 8.00

*Q* Param item = CCOC[C@@H](Nc1nc(Nc2cccc3c2cnn3CCOC)c(C(N)=O)cc1F)[C@H](C)N ; retrieve measured pIC50.
*A* 7.00 to 7.30

*Q* Param item = CC[C@H](N)[C@@H](C)Nc1nc(Nc2ccc3cnn(C)c3c2)c(C(N)=O)cc1F ; retrieve measured pIC50.
*A* > 8.00

*Q* Param item = Cn1nc(N2CCCC2=O)c2cc(Nc3nc(N[C@@H]4CCCC[C@@H]4N)c(F)cc3C(N)=O)ccc21 ; retrieve measured pIC50.
*A* 7.30 to 8.00

*Q* Param item = CCn1ncc2c(Nc3nc(N[C@H](C4CC4)[C@H](C)N)c(F)cc3C(N)=O)cc(F)cc21 ; retrieve measured pIC50.
*A* > 8.00
